SYSTEM_UNDER_TEST: T1, biotinylated recombinant human IL-12Rβ2 (human, UniProt Q99665 24-622, random biotinylated)
T1 construct: Recombinant protein produced in-house; also called hIL-12RB2; human IL-12RB2
T1 sequence: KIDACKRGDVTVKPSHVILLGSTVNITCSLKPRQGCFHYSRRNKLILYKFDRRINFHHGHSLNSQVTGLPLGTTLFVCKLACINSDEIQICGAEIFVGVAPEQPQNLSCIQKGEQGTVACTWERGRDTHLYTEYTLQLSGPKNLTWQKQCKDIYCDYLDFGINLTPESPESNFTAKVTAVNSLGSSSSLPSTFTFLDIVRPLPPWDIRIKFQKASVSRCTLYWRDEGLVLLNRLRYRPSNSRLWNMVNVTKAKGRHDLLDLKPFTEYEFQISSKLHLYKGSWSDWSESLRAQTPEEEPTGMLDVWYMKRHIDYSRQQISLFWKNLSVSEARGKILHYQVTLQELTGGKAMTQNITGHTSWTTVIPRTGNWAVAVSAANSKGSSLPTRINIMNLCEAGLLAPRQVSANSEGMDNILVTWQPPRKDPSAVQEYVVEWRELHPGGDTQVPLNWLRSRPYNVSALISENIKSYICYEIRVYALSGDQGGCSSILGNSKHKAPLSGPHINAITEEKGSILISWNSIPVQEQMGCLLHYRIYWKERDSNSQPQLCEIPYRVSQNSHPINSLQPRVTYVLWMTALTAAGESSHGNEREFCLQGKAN
ASSAY_PROTOCOL: ELISA, P.E., biotinylated antigen
Parameter: ELISA hIL-12RB2/control. Scope: all listed entries.
// no unit, no text: just the number

anti-IL-12Rβ2 VHH clone 3CRH64 (clone ID 20386) (VHH, not shown: small tags and cut ends, periplasmic extract) VHH: QVQLQESGGGLVQAGGSLRLSCTASGHTFSRYTTIGWFRQAPGKDREFVAAIRWSGDITDYADAVKGRFTISRDNVKNTVYLQTNSLNPEDTAVYYCARGYSEYGVLSRNRGLYAYWGQGTQVTVSS; 4.94

Query :: Recorded ELISA hIL-12RB2/control for anti-IL-12Rβ2 VHH clone 3CRH17 (clone ID 20376) (VHH, not shown: small tags and cut ends, periplasmic extract) VHH: QVQLQESGGGLVQAGGSLVLSCAASGSAALIFLMSWYRQAPGKQRELVAEVSRYGSTTYADSVEGRFTISRDNAKNIVDLQMNSLKPEDTAVYYCKADQYYGDSLRSSWGRGTQVTVSS , please?
Result :: 9.8

Query :: Recorded ELISA hIL-12RB2/control for anti-IL-12Rβ2 VHH clone 3CAHS171 (clone ID 20407) (VHH, not shown: small tags and cut ends, periplasmic extract) VHH: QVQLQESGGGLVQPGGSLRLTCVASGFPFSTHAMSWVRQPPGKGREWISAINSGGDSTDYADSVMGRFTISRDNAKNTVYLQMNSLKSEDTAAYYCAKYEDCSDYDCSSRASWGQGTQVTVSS , please?
Result :: 3.27

Query :: Recorded ELISA hIL-12RB2/control for anti-IL-12Rβ2 VHH clone 3CAHS102 (clone ID 20399) (VHH, not shown: small tags and cut ends, periplasmic extract) VHH: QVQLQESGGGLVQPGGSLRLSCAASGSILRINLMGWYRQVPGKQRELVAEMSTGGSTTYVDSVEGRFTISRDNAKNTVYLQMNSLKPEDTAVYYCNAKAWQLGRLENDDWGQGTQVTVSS , please?
Result :: 3.54
